Quick reference: Emax of the listed items.
# SYSTEM_UNDER_TEST: Mu-type opioid receptor (Homo sapiens, UniProt P35372)
# Sequence (P35372 whole entry): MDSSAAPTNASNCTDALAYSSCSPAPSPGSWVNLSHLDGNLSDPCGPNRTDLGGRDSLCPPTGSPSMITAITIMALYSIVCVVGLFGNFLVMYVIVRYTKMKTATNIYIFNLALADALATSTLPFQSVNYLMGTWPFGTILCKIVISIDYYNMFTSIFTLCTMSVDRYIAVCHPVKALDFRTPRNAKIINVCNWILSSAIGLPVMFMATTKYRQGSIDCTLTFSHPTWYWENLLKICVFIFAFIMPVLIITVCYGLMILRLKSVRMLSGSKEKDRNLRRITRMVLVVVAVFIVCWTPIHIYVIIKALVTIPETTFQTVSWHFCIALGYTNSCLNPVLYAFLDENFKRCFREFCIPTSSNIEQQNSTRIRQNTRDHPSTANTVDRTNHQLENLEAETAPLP
# PROTOCOL_SUMMARY: Agonist activity at mu opioid receptor (unknown origin) expressed in human HEK293 cells assessed as […] in cAMP accumulation using [3H]-cAMP as substrate measured after 30mins by liquid scintillation counting method relative to control
# Format: functional, cell-based
READOUT_NAME: Emax (%)

SMILES_RECORD: C=C(C(N)=O)[C@@H](NC(=O)[C@H](Cc1ccccc1)NC(=O)[C@@H](CN)NC(=O)[C@@H](N)Cc1ccc(O)cc1)c1ccco1
READOUT_NAME: Emax
UNIT_OF_MEASUREMENT: %
RECORDED_RESULT: 62.3
--
SMILES_RECORD: C=C(C(N)=O)[C@@H](NC(=O)[C@H](Cc1ccccc1)NC(=O)[C@@H](CNC(C)=O)NC(=O)[C@@H](N)Cc1ccc(O)cc1)c1ccco1
READOUT_NAME: Emax
UNIT_OF_MEASUREMENT: %
RECORDED_RESULT: 78.2
--
SMILES_RECORD: C=C(C(N)=O)[C@@H](NC(=O)[C@H](Cc1c[nH]c2ccccc12)NC(=O)[C@@H](CCCCNC(=N)N)NC(=O)[C@@H](N)Cc1ccc(O)cc1)c1ccco1
READOUT_NAME: Emax
UNIT_OF_MEASUREMENT: %
RECORDED_RESULT: 76.5
--
SMILES_RECORD: C=C(C(N)=O)[C@@H](NC(=O)[C@H](Cc1ccccc1)NC(=O)[C@@H](CCCNC(N)=O)NC(=O)[C@@H](N)Cc1ccc(O)cc1)c1ccco1
READOUT_NAME: Emax
UNIT_OF_MEASUREMENT: %
RECORDED_RESULT: 76.7
--
SMILES_RECORD: C=C(C(N)=O)[C@@H](NC(=O)[C@H](Cc1ccccc1)NC(=O)[C@@H](CCCNC(=N)N)NC(=O)[C@@H](N)Cc1ccc(O)cc1)c1ccco1
READOUT_NAME: Emax
UNIT_OF_MEASUREMENT: %
RECORDED_RESULT: 74.2
--
SMILES_RECORD: C=C(C(N)=O)[C@@H](NC(=O)[C@H](Cc1c[nH]c2ccccc12)NC(=O)[C@@H](CN)NC(=O)[C@@H](N)Cc1ccc(O)cc1)c1ccco1
READOUT_NAME: Emax
UNIT_OF_MEASUREMENT: %
RECORDED_RESULT: 81.5
--
SMILES_RECORD: C=C(C(N)=O)[C@@H](NC(=O)[C@H](Cc1c[nH]c2ccccc12)NC(=O)[C@@H](CCN)NC(=O)[C@@H](N)Cc1ccc(O)cc1)c1ccco1
READOUT_NAME: Emax
UNIT_OF_MEASUREMENT: %
RECORDED_RESULT: 75.5
--
SMILES_RECORD: C=C(C(N)=O)[C@@H](NC(=O)[C@H](Cc1c[nH]c2ccccc12)NC(=O)[C@@H](CNC(C)=O)NC(=O)[C@@H](N)Cc1ccc(O)cc1)c1ccco1
READOUT_NAME: Emax
UNIT_OF_MEASUREMENT: %
RECORDED_RESULT: 73.2
--
SMILES_RECORD: C=C(C(N)=O)[C@@H](NC(=O)[C@H](Cc1c[nH]c2ccccc12)NC(=O)[C@@H](CCCCNC(C)=O)NC(=O)[C@@H](N)Cc1ccc(O)cc1)c1ccco1
READOUT_NAME: Emax
UNIT_OF_MEASUREMENT: %
RECORDED_RESULT: 37.5
